Values compiled from patent EP0558104B1.

pKi tested on CCK-B receptor (Cavia porcellus): recorded values
Sequence (H0VZC5 entry or part of it): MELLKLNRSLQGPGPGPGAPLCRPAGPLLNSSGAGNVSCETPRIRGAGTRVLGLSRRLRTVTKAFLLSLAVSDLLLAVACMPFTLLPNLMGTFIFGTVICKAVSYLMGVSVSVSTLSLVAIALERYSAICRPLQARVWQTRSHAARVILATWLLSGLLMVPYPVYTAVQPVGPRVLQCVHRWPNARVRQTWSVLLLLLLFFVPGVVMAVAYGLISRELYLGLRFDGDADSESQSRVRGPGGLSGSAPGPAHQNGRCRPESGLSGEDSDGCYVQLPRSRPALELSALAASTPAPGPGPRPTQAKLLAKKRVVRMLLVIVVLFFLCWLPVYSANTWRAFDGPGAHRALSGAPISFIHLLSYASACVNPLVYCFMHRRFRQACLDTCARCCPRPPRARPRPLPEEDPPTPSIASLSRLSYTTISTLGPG
Note on units: pKi is unitless, being -log10 of a concentration expressed in mol/L.

Give the reported value of pKi for this record: CC(C)CCN1C(=O)C(NC(=O)Nc2cccc(N(C)C)c2)C(=O)N(c2ccccc2F)c2ccccc21 (stereo not drawn) 9.60

Give the reported value of pKi for this record: CC(C)CCN1C(=O)C(NC(=O)Nc2ccccc2)C(=O)N(c2ccccc2)c2cc(Cl)c(Cl)cc21 (stereo not drawn) 8.01

Give the reported value of pKi for this record: CC(C)CCN1C(=O)C(NC(=O)Nc2ccccc2)C(=O)N(c2ccccc2)c2cc(Cl)ccc21 (stereo not drawn) 8.31

Give the reported value of pKi for this record: CCOC(=O)c1cccc(NC(=O)NC2C(=O)N(CC34CC5CC(CC(C5)C3)C4)c3ccccc3N(c3ccccc3)C2=O)c1 (stereo not drawn) 8.53

Give the reported value of pKi for this record: O=C(Nc1ccccc1)NC1C(=O)N(CC2CC3C=CC2C3)c2ccccc2N(c2ccccc2)C1=O (stereo not drawn) 8.82

Give the reported value of pKi for this record: CC(C)(C)CCN1C(=O)C(NC(=O)Nc2ccccc2)C(=O)N(c2ccccc2)c2ccccc21 (stereo not drawn) 9.17

Give the reported value of pKi for this record: O=C(Nc1cccc([N+](=O)[O-])c1)NC1C(=O)N(CC23CC4CC(CC(C4)C2)C3)c2ccccc2N(c2ccccc2)C1=O (stereo not drawn) 8.72

Give the reported value of pKi for this record: CN(C)c1ccc(NC(=O)NC2C(=O)N(CCC3CCCC3)c3ccccc3N(c3ccccc3F)C2=O)cc1 (stereo not drawn) 9.14

Give the reported value of pKi for this record: CC(C)(C)C(O)CN1C(=O)C(NC(=O)Nc2ccccc2)C(=O)N(c2ccccc2F)c2ccccc21 (stereo not drawn) 8.71
